- Tested on: Bmi-1
- Procedure text: Sandwich ELISA Assay (Bmi-1 ELISA) in HT-1080 cells
- Type: cell-based
- Procedure: Cell Seeding and Compound Treatment (Day 1): HT-1080 cells were seeded at 8000 cells/well (50 μL) in 96-well tissue culture plates. […] The plate was washed and blotted dry as previously described, then prepared TMB substrate (TMB substrate kit, Pierce catalog #34021) (prepared by mixing kit reagents 1:1) (100 μL) was added per well. […] The plates were read at OD450 (experimental) and OD570 (reference).
pEC50: −log10 of the molar value.
Assay endpoint: pEC50

Below, each entry is followed by its recorded pEC50 result.
Entry Cc1ccc(Nc2nc(-n3c(C)nc4cc(F)c(F)cc43)nc(N)c2F)cc1 [Cpd 213] has what pEC50?
8.00 to 9.00

Input Cc1ccc(Nc2cc(N)nc(-n3c(C)nc4ccccc43)n2)cc1 [Cpd 196]
8.00 to 9.00

// next record Cc1nc2cc(F)cc(F)c2n1-c1nc(N)c(F)c(Nc2ccc(C(F)(F)F)cc2)n1 [Cpd 243]
7.00 to 8.00

Same again, this time with COc1ccc(Nc2ccnc(-c3c(C(F)(F)F)nc4ccccn34)n2)cc1F [Cpd 34]
8.00 to 9.00

Moving on to COc1ccc(Nc2ccnc(-c3c(C(F)(F)F)nc4ccccn34)n2)cn1 [Cpd 30]
5.52 to 7.00

***
Item under review: Nc1cc(Nc2ccc(OC(F)(F)F)cc2)nc(-c2c(C(F)(F)F)nc3ccccn23)n1 [Cpd 67] . Reported pEC50?
5.52 to 7.00

Same question for Cc1nc2ccccn2c1-c1nc(N)c(F)c(Nc2ccc(OC(F)F)cc2)n1 [Cpd 170] please.
5.52 to 7.00

Same thing, different molecule: Cc1nc2ccccc2n1-c1nc(N)cc(Nc2ccc(N(C)C)cc2)n1 [Cpd 198]
8.00 to 9.00

---

- Tested on: Bmi-1
- Procedure text: Sandwich ELISA Assay (Bmi-1 ELISA) in HT-1080 cells
- Format: cell-based
Assay endpoint: EC50

Need EC50 of COc1ccc(Nc2ccnc(-c3c(C(F)(F)F)n(C)c4ccc(Cl)cc34)n2)cc1 , thanks.
100 to 3000 nM

Could you do the same for Cc1nc2cc(C#N)ccc2n1-c1nc(N)c(F)c(Nc2ccc(C(F)(F)F)cc2)n1 , please?
100 to 3000 nM

Next:
What measured EC50 goes with FC(F)Oc1ccc(Nc2ccnc(-c3c(C(F)(F)F)nc4ccccn34)n2)cc1 ?
100 to 3000 nM

Moving on to the next molecule: Cc1nc2ccc(F)cc2n1-c1nc(N)cc(Nc2ccc(Cl)c(F)c2)n1
100 to 3000 nM

Same thing, different molecule: Cc1nc2ccccc2n1-c1nc(N)c(F)c(Nc2ccc(OC(F)F)c(F)c2)n1
10 to 100 nM

Next molecule: Cc1nc2cc(Cl)ccc2n1-c1nc(N)c(F)c(Nc2ccc(C(F)(F)F)cc2)n1
100 to 3000 nM

Let us now turn to Cc1cccc(Nc2nc(-n3c(C)nc4ccccc43)nc(N)c2F)c1
100 to 3000 nM

Lookup CCc1nn2ccc(F)cc2c1-c1nc(N)c(F)c(Nc2ccc(OC(F)F)c(F)c2)n1
100 to 3000 nM

Please give the result for Cc1nc2ccc(F)cc2n1-c1nc(N)c(F)c(Nc2ccc(Cl)cc2)n1 too.
10 to 100 nM

Entry to check: Nc1cc(Nc2ccc(C(F)(F)F)cc2)nc(-n2c(C3CC3)nc3cc(F)ccc32)n1
10 to 100 nM

// next record Cc1nc2cc(F)c(F)cc2n1-c1nc(N)c(F)c(Nc2ccc(OC(F)F)c(F)c2)n1
10 to 100 nM

Same question for Cc1cn2c(-c3nc(N)c(F)c(Nc4ccc(OC(F)F)cc4)n3)c(C)nc2c(C)n1 please.
100 to 3000 nM

Thanks! And COCCNc1cc(Nc2ccc(C(F)(F)F)cc2)nc(-n2c(C)nc3ccccc32)n1 ?
100 to 3000 nM

Another molecule to look at: COc1ccc(Nc2cc(N)nc(-n3c(C)nc4ccccc43)n2)cn1
1 to 10 nM

What would you report for COc1ccc(Nc2nc(-n3c(C)nc4ccc(F)cc43)nc(N)c2F)cc1 ?
1 to 10 nM

Also need Nc1nc(-n2c(C3CC3)nc3ccccc32)nc(Nc2ccc(Cl)cc2)c1F , thanks.
10 to 100 nM

Now give it for Cc1ccc(Nc2nc(-n3c(C)nc4cc(C#N)ccc43)nc(N)c2F)cc1 too.
10 to 100 nM

For Cc1ccc(Nc2nc(-n3c(C)nc4ccc(C#N)cc43)nc(N)c2F)cc1 then?
10 to 100 nM

Could you do the same for Cc1cn2c(-c3nc(N)c(F)c(Nc4ccc(OC(F)F)c(F)c4)n3)c(C)nc2c(C)n1 , please?
100 to 3000 nM

Continue with Cc1ccc(Nc2ccnc(-c3c(C(F)(F)F)nc4ccc(F)cn34)n2)cc1
1 to 10 nM

Cool, now CC1(c2nc3ccccc3n2-c2nc(N)cc(Nc3ccc(C(F)(F)F)cc3)n2)CC1
100 to 3000 nM
